- system.name: Y4R
- assay.text: cell-based or functional assay
*1 amine or outer side, *2 acyl side, *3 side chain or, on linkers, in order; H or OH if unused. Bridges are numbered along the chain shown (N, C = ends). [ ]: non-standard residue; d: D form. Cms = N-(5-O-carboxymethyl)-serotonin, O=C(COc1ccc2[nH]cc(CCN[*:1])c2c1)[*:2]; Nle = CCCC[C@H](N)C(=O)O
Recorded Y4R EC50(nM) FLIPR, one value per entry.
measured.endpoint: Y4R EC50(nM) FLIPR

binder	result.value
IKRHYLNLVTRQRY (N-methyl Thr at PYY position 32 (residue 8 of the second part); Pqa moiety between the two parts; C-terminal amide) [H-Ile-Lys-Pqa-Arg-His-Tyr-Leu-Asn-Leu-Val-(NMe)Thr-Arg-Gln-Arg-Tyr-NH2]	> 5000 nM
Ac-I[Nle][Cms]RHYKNLVDRQRY-NH2 (lactam 7-11; SMILES CCCC[C@H](NC(=O)[C@@H](NC(C)=O)[C@@H](C)CC)C(=O)NCCc1c[nH]c2ccc(OCC(=O)N[C@@H](CCCNC(=N)N)C(=O)N[C@@H](Cc3c[nH]cn3)C(=O)N[C@@H](Cc3ccc(O)cc3)C(=O)N[C@H]3CCCCNC(=O)C[C@@H](C(=O)N[C@@H](CCCNC(=N)N)C(=O)N[C@@H](CCC(N)=O)C(=O)N[C@@H](CCCNC(=N)N)C(=O)N[C@@H](Cc4ccc(O)cc4)C(N)=O)NC(=O)[C@H](C(C)C)NC(=O)[C@H](CC(C)C)NC(=O)[C@H](CC(N)=O)NC3=O)cc12) [Cyclo Lys28-Aspu32 Ac-Ile-Nle-Cms-Arg-His-Tyr-Lys-Asn-Leu-Val-Asp-Arg-Gln-Arg-Tyr-NH2]	> 5000 nM
